All values here come from the supplement of paper PMC10567573.

B1: ZNF649 (parent)
chain: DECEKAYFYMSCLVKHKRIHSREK

Variants of: B1
Assay: protein stability index of a GFP-peptide fusion (GPS, HEK-293T) (PSI 1-6); higher = more stable;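 note: lentivirally expressed fusions sorted by FACS into six bins by GFP to DsRed ratio, PSI derived from sequencing read proportions per bin multiplied by bin number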
Conditions: c terminus: a fixed tail appended
Would you kindly list protein stability index for each of these variants?
Lab note: record just the number, no unit beside it.

# return recorded protein stability index for entry DACEKAYFYMSCLVKHKRIHSREK [E2A] 2.17

Given DECEKAYFYMSCMVKHKRIHSREK [L13M] , respond with its protein stability index. 3.25

Indicate the recorded protein stability index value for this variant: KECEKAYFYMSCLVKHKRIHSREK [D1K] 2

Given the variant DECEKAYFHMSCLVKHKRIHSREK [Y9H] , write its reported protein stability index. 3.03

Item DECEKAYFNMSCLVKHKRIHSREK [Y9N] : provide protein stability index 3.93

Look up and report measured protein stability index for this entry: DECEKAYFYMSHLVKHKRIHSREK [C12H] 3.12

Report measured protein stability index; entry is DECEAAYFYMSCLVKHKRIHSREK [K5A] 2.71

Consider the variant DECEKAYFYMKCLVKHKRIHSREK [S11K] and give its recorded protein stability index. 2

Supply measured protein stability index of DECEKAYMYMSCLVKHKRIHSREK [F8M] in your reply. 3.36

Look up and state reported protein stability index for DECDKAYFYMSCLVKHKRIHSREK [E4D] 2.83

Return reported protein stability index. Input variant: DECEKAYFYMSCLVKHKRIHSRIK [E23I] 2.42

Read off the recorded protein stability index for DECEKAYFYMSCLVKHKRIWSREK [H20W] 2.4

Provide only the value of recorded protein stability index for DECEKAYFYMSCLQKHKRIHSREK [V14Q] 3.05

Specify measured protein stability index for DECAKAYFYMSCLVKHKRIHSREK [E4A] . 1.62

In one line, give reported protein stability index of the entry DECEKAYFYMSCLVKHKRIHSRQK [E23Q] . 2.99

Check the records and state protein stability index for DECEKAYFYMSMLVKHKRIHSREK [C12M] 2.95

Answer with the recorded protein stability index of DECEKAYFYMSCLVKHKRIHSREC [K24C] only. 1.55

Tell me measured protein stability index for DECEKAYFYMSCLVKHKRDHSREK [I19D] please. 3.59

Tell me its protein stability index given DECEKAYFYMSCKVKHKRIHSREK [L13K] as the entry. 2.68

Provide one value: measured protein stability index of DECERAYFYMSCLVKHKRIHSREK [K5R] 2.5

Given DEMEKAYFYMSCLVKHKRIHSREK [C3M] , respond with its protein stability index. 2.4

Answer with the recorded protein stability index for the variant listed here: DECEEAYFYMSCLVKHKRIHSREK [K5E] 2.95

Supply measured protein stability index of DECEKAYEYMSCLVKHKRIHSREK [F8E] in your reply. 4.18

Please give the documented protein stability index of DECFKAYFYMSCLVKHKRIHSREK [E4F] 1.92

Give the reported protein stability index for this variant. DECEKAYFYMSCLVKHKRIHPREK [S21P] 2.08

Supply reported protein stability index belonging to this variant: DECEKAYFGMSCLVKHKRIHSREK [Y9G] 4.26

Please report the measured protein stability index for DECEKAYFYMSCLVKHKRIHSREW [K24W] 1.92

Give reported protein stability index value for DECEKAYCYMSCLVKHKRIHSREK [F8C] 2.96

Tell me measured protein stability index for DECEKAYFYMSCLVKHKRIHSYEK [R22Y] please. 2.16

Return protein stability index for the following variant: DECEKAYFYMSCLVKHKRIHIREK [S21I] 2.61

Specify reported protein stability index for the variant shown: DECEKAYFYMSCLVKHKRIHSQEK [R22Q] 2.28

Respond only with protein stability index recorded for DECEKAYFYMSCLVKHKVIHSREK [R18V] 2.36

// fetch protein stability index given entry DECEKAYFVMSCLVKHKRIHSREK [Y9V] 2.54

# return recorded protein stability index for input DECECAYFYMSCLVKHKRIHSREK [K5C] 2.52

Determine from records and report protein stability index for DECEKAYFYSSCLVKHKRIHSREK [M10S] 3.19

Provide measured protein stability index value, entry: DECEKAYFYMSCLVMHKRIHSREK [K15M] 1.9

Read off the recorded protein stability index for DECEKAYFYMSCLVKHKPIHSREK [R18P] 2.48

Complete the entry with protein stability index for DECEKAYFYMSCLVKGKRIHSREK [H16G] 3.24

Look up protein stability index of DECEKAYFYMSDLVKHKRIHSREK [C12D] and report it. 4.16

Report protein stability index, nothing else, for this variant: DECEKAYFAMSCLVKHKRIHSREK [Y9A] 3.71

Tell me measured protein stability index for DECEKAYFYMSCLVKHKRIHQREK [S21Q] please. 2.95

Quick one: give measured protein stability index for DECENAYFYMSCLVKHKRIHSREK [K5N] 2.84

Specify reported protein stability index for the variant shown: DECEKAYFYMSCLVKHKRIHSREL [K24L] 1.75

Specify measured protein stability index for DECEKAYFYMSCLVKHKRIHSRES [K24S] . 3.13

Identify the reported protein stability index for the following entry. DECEKANFYMSCLVKHKRIHSREK [Y7N] 3.61

Note down protein stability index recorded for DECEKAYFYMSCLVKHKRIHHREK [S21H] 2.53
